The measured values listed here are drawn from paper PMC5177656.

Substrate: O=CC(O)COP(=O)(O)O
method.description: coupled assay with alpha-glycerophosphate dehydrogenase, NADH consumption
Assay type: biochemical, Arabidopsis thaliana
applied.conditions: pH 7.8, 30°C, 100 mM Tris-Cl, 5 mM DTT, GAP 0-4 mM (from DL-GAP)
experimental.readout: Km (µM)

protein="cTPI (cytosolic triosephosphate isomerase) (Arabidopsis thaliana) (protein, tag removal not mentioned) MARKFFVGGNWKCNGTAEEVKKIVNTLNEAQVPSQDVVEVVVSPPYVFLPLVKSTLRSDFFVAAQNCWVKKGGAFTGEVSAEMLVNLDIPWVILGHSERRAILNESSEFVGDKVAYALAQGLKVIACVGETLEEREAGSTMDVVAAQTKAIADRVTNWSNVVIAYEPVWAIGTGKVASPAQAQEVHDELRKWLAKNVSADVAATTRIIYGGSVNGGNCKELGGQADVDGFLVGGASLKPEFIDIIKAAEVKKSA" recorded_number=1320
protein="cTPI (cytosolic triosephosphate isomerase) (Arabidopsis thaliana; C218S) (protein, tag removal not mentioned) MARKFFVGGNWKCNGTAEEVKKIVNTLNEAQVPSQDVVEVVVSPPYVFLPLVKSTLRSDFFVAAQNCWVKKGGAFTGEVSAEMLVNLDIPWVILGHSERRAILNESSEFVGDKVAYALAQGLKVIACVGETLEEREAGSTMDVVAAQTKAIADRVTNWSNVVIAYEPVWAIGTGKVASPAQAQEVHDELRKWLAKNVSADVAATTRIIYGGSVNGGNSKELGGQADVDGFLVGGASLKPEFIDIIKAAEVKKSA" recorded_number=1680
protein="cTPI (cytosolic triosephosphate isomerase) (Arabidopsis thaliana; C127S/C218S) (protein, tag removal not mentioned) MARKFFVGGNWKCNGTAEEVKKIVNTLNEAQVPSQDVVEVVVSPPYVFLPLVKSTLRSDFFVAAQNCWVKKGGAFTGEVSAEMLVNLDIPWVILGHSERRAILNESSEFVGDKVAYALAQGLKVIASVGETLEEREAGSTMDVVAAQTKAIADRVTNWSNVVIAYEPVWAIGTGKVASPAQAQEVHDELRKWLAKNVSADVAATTRIIYGGSVNGGNSKELGGQADVDGFLVGGASLKPEFIDIIKAAEVKKSA" recorded_number=500
protein="cTPI (cytosolic triosephosphate isomerase) (Arabidopsis thaliana; C127S) (protein, tag removal not mentioned) MARKFFVGGNWKCNGTAEEVKKIVNTLNEAQVPSQDVVEVVVSPPYVFLPLVKSTLRSDFFVAAQNCWVKKGGAFTGEVSAEMLVNLDIPWVILGHSERRAILNESSEFVGDKVAYALAQGLKVIASVGETLEEREAGSTMDVVAAQTKAIADRVTNWSNVVIAYEPVWAIGTGKVASPAQAQEVHDELRKWLAKNVSADVAATTRIIYGGSVNGGNCKELGGQADVDGFLVGGASLKPEFIDIIKAAEVKKSA" recorded_number=480
